Reported koff values for the following binders.
# TESTED_ON: T1, human SIRP-α v2 D1 domain (human)
# T1 construct: also called human v2
# TEST_DETAILS: SPR, Langmuir fit

>  <BINDER>
S132 (scFv, V domains shown) VH: DVQLVESGGGVVRPGESLRLSCAASGFSFRSYAMNWVRQAPGEGLEWVSRINSGGGGTDYADSVKGRFTISRDNSKNTLYLQMNSLRAEDTAVYYCAKQYDWNSFFDYWGLGALVTVSS VL: ETVLTQSPATLSVSPGERATLSCRASQTVGSKLAWHQQKPGQAPRLLIYDASNRATGIPDRFSGSGSGTDFTLTISSPQTEDSAVYYCQQYYYWPPYRFGGGTKVEIK

>  <koff, s⁻¹>
2.06e-05

$$$$
>  <BINDER>
S71 (scFv, V domains shown, also called clone 71) VH: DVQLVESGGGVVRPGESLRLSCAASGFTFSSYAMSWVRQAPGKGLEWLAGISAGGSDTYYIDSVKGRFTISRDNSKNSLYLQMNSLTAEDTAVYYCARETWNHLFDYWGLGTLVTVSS VL: ALTQPASVSANPGETVKITCSGGGYYSTYYGWYQQKSPGSAPVTVIHSDDKRPSDIPSRFSGSASGSAATLTITGVRVEDEAVYYCAGYDARTYINTFGAGTTLTVL

>  <koff, s⁻¹>
0.000403

$$$$
>  <BINDER>
S161 (scFv, V domains shown, scFv-Fc format (VL-linker-VH on human IgG1 Fc)) VH: DVQLVESGGGVVRPGESLRLSCAASGFTFSNFAMTWVRQAPGKGPEWVSLVSVTATTYYADSVKGRFTISRDNSKSTLYLQMNSLRAEDTAVYYCAKITWNNLFDYWGLGTLVTVSS VL: EIVLTQSPGTLSLSPGERATLSCRASQTVGSKLAWYQQKPGQAPRLLIYDSSSRASGIPDRFSGSGSGTDFTLTISSLQSEDSAVYYCQQHNDWPPYTFGGGTKVEIK

>  <koff, s⁻¹>
0.000348

$$$$
